systemUnderTest: PIK3CA (human) (UniProt P42336)
Sequence (P42336 whole entry, looked up): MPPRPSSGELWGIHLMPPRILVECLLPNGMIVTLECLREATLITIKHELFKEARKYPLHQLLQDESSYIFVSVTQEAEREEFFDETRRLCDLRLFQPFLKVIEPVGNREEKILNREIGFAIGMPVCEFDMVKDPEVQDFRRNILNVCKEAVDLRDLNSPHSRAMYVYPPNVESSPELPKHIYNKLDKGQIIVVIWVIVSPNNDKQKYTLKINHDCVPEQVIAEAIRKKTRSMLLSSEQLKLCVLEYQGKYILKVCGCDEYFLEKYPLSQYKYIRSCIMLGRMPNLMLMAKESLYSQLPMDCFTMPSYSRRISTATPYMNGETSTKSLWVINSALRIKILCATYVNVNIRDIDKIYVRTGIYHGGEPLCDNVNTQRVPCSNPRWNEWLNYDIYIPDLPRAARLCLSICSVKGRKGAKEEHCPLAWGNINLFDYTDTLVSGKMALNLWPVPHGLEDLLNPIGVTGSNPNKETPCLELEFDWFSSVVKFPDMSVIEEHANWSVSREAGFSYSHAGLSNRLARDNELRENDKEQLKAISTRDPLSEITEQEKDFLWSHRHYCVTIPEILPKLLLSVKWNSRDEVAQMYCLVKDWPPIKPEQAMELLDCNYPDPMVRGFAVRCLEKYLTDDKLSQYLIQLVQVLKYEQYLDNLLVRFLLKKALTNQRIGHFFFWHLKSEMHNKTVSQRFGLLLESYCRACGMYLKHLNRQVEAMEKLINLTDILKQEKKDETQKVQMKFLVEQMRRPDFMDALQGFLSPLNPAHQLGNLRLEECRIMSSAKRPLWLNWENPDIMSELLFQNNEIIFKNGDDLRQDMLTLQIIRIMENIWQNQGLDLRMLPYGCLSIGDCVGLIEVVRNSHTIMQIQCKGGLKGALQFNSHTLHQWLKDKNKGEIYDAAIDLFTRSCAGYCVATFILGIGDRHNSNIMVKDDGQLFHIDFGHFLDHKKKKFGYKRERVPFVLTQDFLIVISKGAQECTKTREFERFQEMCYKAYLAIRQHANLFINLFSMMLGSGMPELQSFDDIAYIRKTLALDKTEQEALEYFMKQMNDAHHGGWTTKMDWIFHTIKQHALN
testProtocol: Inhibition of PIK3CA Kinase Activity
Form field: pIC50 (one value per entry).
Conceptually, pIC50 converts a concentration in mol/L into minus its log10.

Worked examples follow.
CS(=O)(=O)Nc1cccc(-c2nn3c(-c4cnc(N)c(C(F)(F)F)c4)cnc3s2)c1 | 7.55
CC1(C)CNC(=O)c2sc(N3CCOC[C@@H]3Cc3c[nH]c4ncccc34)nc2C1 | 7.23
CC1(C)CC(=O)C2=C(C1)Nc1c(c(C3CCCCC3)nn1-c1cccc(F)c1)C2c1ccc(C(F)(F)F)cc1 (stereo not drawn) | 5.10
Cc1ccc([N+](=O)[O-])cc1S(=O)(=O)n1ccc(-c2c(C)nc3ccc(Br)cn23)n1 | 8.52
CN(C)CCCN1CCN(c2cccc(Oc3cc(=O)[nH]c4ccccc34)c2)CC1 | 5.00

Item: CS(=O)(=O)Nc1cccc(-c2cc(N3CCOCC3)nc(OCc3ccccn3)n2)c1 | pIC50: 5.21

Recorded result, CN[C@@H](C)c1ccc(S(=O)(=O)Nc2cc(-c3ccc4nc(NC(C)=O)cn4n3)cnc2Cl)cc1 , pIC50: 8.10

pIC50 for NC(=O)C1CCN(c2cccc(-c3nc(-c4cccc(O)c4)cc(N4CCOCC4)n3)c2)CC1 is 6.00

The reported pIC50 of the compound CN1CCC(Nc2cccc(-c3cccc(Oc4cc(=O)[nH]c5ccccc45)c3)c2)CC1 was 5.08

// field: pIC50; key: COC[C@H]1OC(=O)c2coc3c2[C@@]1(C)C1=C(C3=O)[C@@H]2CCC(=O)[C@@]2(C)C[C@H]1C(=O)OCN(C)c1ccc([N+](=O)[O-])c2nonc12 ; value = 9.15

For this compound ( CN(C)c1ccc2c(COC(=O)[C@@H]3CC(=O)c4coc5c4[C@@]3(C)c3ccc4c(c3C5=O)CCC4=O)cc(=O)oc2c1 ), measured pIC50 is 8.72

The measured pIC50 associated with CN[C@H](C)c1ccc(S(=O)(=O)Nc2cc(-c3ccc4nc(NC(C)=O)cn4n3)cnc2Cl)cc1 reads 8.22

compound O=C1NCc2cncc(c2)-c2ncnc3c2SC(=C3)c2cncc(c2)NS(=O)(=O)c2cccc1c2 , pIC50 observed: 7.36

For record COc1ncc2cc1NS(=O)(=O)c1cccc(c1)C(=O)NCCN1CC=C(CC1)c1cnn3ccc-2nc13 the listed pIC50 is 7.70

Lab book: pIC50 of C(#Cc1n[nH]c2ncccc12)c1ccccn1 noted as 5.05

Reported pIC50 for COc1ccc(-c2c[nH]c3ncc(-c4cncc(NS(=O)(=O)c5ccc(F)cc5F)c4)cc23)cc1OC was 8.52

Entry O=c1cc(Oc2cccc(NCc3cnccc3N3CCOCC3)c2)c2ccccc2[nH]1 ; pIC50 = 5.25

----------
systemUnderTest: UniProtKB P24941
measuredParameter: IC50 (µM)
Express the result in µM but write the number alone.

So the reported IC50 for CC(C)n1cnc2c(NCc3ccccc3)nc(NCCCO)nc21 , on UniProtKB P24941, turned out to be 4.6

----------
systemUnderTest: CDK2 (UniProt P24941)
measuredParameter: pIC50
Value format note: pIC50 is -log10 of concentration (mol/L); just state the number.

Field pIC50 (CDK2 (UniProt P24941)), entry NC1=NC(=O)/C(=C2\CCNC(=O)c3[nH]c(Br)cc32)N1 : 7.15

Origin of values: the Kinase Knowledgebase extract (Sharma et al. 2016)
